Target: human PDGFRβ (Homo sapiens (Human), UniProt P09619)
Sequence (P09619 561-1106): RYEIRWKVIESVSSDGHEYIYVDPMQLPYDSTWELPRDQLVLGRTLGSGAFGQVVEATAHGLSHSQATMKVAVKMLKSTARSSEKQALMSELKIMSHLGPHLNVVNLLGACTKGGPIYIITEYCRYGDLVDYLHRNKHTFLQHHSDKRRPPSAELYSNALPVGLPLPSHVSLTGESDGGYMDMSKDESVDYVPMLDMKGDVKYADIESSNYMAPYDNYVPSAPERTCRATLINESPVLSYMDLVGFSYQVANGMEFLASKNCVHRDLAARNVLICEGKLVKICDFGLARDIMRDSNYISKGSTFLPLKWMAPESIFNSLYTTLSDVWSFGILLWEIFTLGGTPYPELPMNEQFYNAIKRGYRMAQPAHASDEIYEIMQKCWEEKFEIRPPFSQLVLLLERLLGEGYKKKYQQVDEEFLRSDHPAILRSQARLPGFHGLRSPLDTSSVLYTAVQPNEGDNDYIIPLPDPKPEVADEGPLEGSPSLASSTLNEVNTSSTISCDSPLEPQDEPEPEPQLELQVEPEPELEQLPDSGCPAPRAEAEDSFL
Assay: PDGFRβ kinase assay (PDGFRβ-HTRF)
Assay type: biochemical
Conditions: 10 μM ATP; some mean values from multiple determinations
Description: The PDGFRβ-inhibitory activity of the inventive compounds was determined in the PDGFRβ-HTRF assay described hereinafter. […] Subsequently, the amount of the phosphorylated substrate was evaluated by measuring the resonance energy transfer from the PT66-Eu chelate to the streptavidin-XL665. […] The IC50 values were calculated by a 4-parameter fit.
pIC50: −log10 of the molar value.
Below, each entry is listed with its recorded pIC50.
Measurement kind: pIC50

{"Structure as smiles": "Cc1cc(F)c(Nc2ccnc3c2C(=O)Nc2cc(CN4CCN(C)CC4)ccc2N3)cc1O", "Measured value": 8.82}
{"Structure as smiles": "Cc1cc(F)c(Nc2ccnc3c2C(=O)Nc2cc(CN(C)CCN(C)C)ccc2N3)cc1O", "Measured value": 8.73}
{"Structure as smiles": "Cc1cc(F)c(Nc2ccnc3c2C(=O)Nc2cc(CN[C@@H](CO)Cc4cnc[nH]4)ccc2N3)cc1O", "Measured value": 8.79}
